# test.system: HDAC1 (Homo sapiens)
# Sequence (Q13547 whole entry): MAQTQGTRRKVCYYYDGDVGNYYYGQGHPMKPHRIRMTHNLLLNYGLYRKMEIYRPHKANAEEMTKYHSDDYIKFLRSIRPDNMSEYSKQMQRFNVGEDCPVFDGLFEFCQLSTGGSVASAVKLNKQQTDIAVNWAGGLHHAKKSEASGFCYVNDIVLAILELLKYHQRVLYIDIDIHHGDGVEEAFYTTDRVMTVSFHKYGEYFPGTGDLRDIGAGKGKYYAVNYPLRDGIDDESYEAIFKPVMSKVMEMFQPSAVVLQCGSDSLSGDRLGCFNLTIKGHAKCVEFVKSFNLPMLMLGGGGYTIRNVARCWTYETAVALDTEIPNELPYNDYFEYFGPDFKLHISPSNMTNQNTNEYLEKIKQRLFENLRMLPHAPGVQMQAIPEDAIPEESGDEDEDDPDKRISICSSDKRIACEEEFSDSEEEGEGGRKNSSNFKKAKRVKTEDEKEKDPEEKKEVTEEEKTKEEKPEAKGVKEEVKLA

{"molecule": "O=C(NO)c1cnc(N2C[C@@H]3[C@H](C2)[C@H]3NCc2ccc3cc(F)ccc3n2)nc1 [Nstat]", "IC50": "3.6 nM"}

----------
# test.system: HDAC2 (Homo sapiens)
# Sequence (Q92769 whole entry): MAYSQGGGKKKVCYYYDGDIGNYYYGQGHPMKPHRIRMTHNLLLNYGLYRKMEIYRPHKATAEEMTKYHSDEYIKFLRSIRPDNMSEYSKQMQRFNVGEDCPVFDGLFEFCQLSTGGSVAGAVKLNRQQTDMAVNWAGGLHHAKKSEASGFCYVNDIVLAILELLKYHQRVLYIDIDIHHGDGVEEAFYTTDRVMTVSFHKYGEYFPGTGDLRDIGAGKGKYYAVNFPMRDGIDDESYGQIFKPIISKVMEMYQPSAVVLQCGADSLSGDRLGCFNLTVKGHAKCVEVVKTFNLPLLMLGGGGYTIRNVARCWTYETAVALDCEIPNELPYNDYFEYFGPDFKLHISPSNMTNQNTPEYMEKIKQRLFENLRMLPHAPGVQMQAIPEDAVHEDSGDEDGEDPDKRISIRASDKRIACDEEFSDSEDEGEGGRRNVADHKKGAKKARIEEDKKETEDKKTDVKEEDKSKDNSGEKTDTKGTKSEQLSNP
pIC50: −log10 of the molar value.

{"entry.smiles": "O=C(NO)c1cnc(N2C[C@@H]3[C@H](C2)[C@H]3NCc2ccc3cc(F)ccc3n2)nc1", "pIC50": 7.92}

----------
# test.system: HDAC3/NCOR2 (Homo sapiens)
# Sequence (O15379 whole entry): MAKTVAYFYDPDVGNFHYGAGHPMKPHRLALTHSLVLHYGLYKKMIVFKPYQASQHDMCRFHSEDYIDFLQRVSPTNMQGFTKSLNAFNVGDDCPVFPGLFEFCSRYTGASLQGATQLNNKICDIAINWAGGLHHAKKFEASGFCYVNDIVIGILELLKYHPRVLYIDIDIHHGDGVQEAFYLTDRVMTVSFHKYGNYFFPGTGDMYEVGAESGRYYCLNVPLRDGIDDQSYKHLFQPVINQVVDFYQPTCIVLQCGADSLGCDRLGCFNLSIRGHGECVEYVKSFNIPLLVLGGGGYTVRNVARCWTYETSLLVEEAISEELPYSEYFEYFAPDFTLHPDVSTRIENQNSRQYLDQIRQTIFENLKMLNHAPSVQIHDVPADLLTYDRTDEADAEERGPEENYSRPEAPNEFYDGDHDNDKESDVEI
# Sequence (Q9Y618 395-489 partner limits assumed): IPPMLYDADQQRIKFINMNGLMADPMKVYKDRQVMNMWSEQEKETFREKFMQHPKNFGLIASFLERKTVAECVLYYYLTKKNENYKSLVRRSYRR
# protocol.description: HDAC activity assay (fluorescence)
# measurement.conditions: HDAC3/NCOR2, 10 μM HDAC Substrate 3

{"entry.smiles": "O=C(NO)c1cnc(N2C[C@@H]3[C@H](C2)[C@H]3NCc2ccc3cc(F)ccc3n2)nc1", "test.system": "HDAC3/NCOR2 (Homo sapiens)", "IC50 (nM)": 12}

This collection of values is drawn from patent US20220226322A1.
